Target: Streptokinase A (Streptococcus pyogenes serotype M1, UniProt P10520)
Sequence (P10520 whole entry): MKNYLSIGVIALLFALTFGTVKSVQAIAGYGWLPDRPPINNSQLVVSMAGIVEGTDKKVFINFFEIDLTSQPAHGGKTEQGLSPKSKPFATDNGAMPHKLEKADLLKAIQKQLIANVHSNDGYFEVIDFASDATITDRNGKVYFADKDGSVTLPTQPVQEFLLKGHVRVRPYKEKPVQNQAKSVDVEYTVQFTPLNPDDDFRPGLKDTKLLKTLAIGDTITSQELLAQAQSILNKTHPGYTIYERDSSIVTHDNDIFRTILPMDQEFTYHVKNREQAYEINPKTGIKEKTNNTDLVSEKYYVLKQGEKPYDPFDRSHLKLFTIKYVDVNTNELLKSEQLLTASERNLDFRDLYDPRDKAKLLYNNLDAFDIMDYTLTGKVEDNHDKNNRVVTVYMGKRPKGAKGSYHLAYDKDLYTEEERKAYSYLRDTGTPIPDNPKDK
Experiment: viability-normalized secreted streptokinase activity reduction – plasminogen activation absorbance, OD405, dose response (AID 1914);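 further: secreted streptokinase activity via plasminogen activation per viability signal from cell pellet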
Format: functional, Streptococcus pyogenes M1 GAS
The source made the active and inactive calls. No stated cut-off is given here; in the data, actives have a measured EC50 and inactives only a lower limit.
property_label: EC50

compound	recorded_value
O=C(Nc1nc2ccc(SC(F)F)cc2s1)c1ccc(NS(=O)(=O)c2ccc(F)c(F)c2)cc1	> 50 µM (not active)
COc1ccc(NC(=O)c2cccc(-c3ccc(O)cc3)c2)cn1	> 150 µM (not active)
CC(C)C1OC(NC(=O)Nc2ccc(Cl)c(Cl)c2)=NC1=O (stereo not drawn)	> 150 µM (not active)
Cc1ccnc(NS(=O)(=O)c2ccc(NC(=O)c3cc(-c4ccc(Br)cc4)nc4ccccc34)cc2)n1	5.84 µM (inconclusive)
CCn1c(=O)n(CC)c2cc(N3CCCC3)c(NC(=O)c3cc(Br)ccc3OC)cc21	18.5 µM (active)
CCCC(O)(c1ccc(Br)cc1)C(CN1CCOCC1)c1ccc(Cl)cc1 (stereo not drawn)	12.1 µM (active)
CC(C)n1nc(C(=O)Nc2nnc(SCc3c(Cl)cccc3Cl)s2)c2ccccc2c1=O	> 150 µM (not active)
Cc1ccc(C)c(-c2cc(C(=O)Nc3sc(C)c(C)c3C(N)=O)c3ccccc3n2)c1	4.64 µM (active)
